Each entry below lists one item and its recorded MFI value.
MEASUREMENT_TARGET: T1, human TREM2 expressed on cells (human, UniProt Q9NZC2 19-230)
T1 construct: BW5147.G.1.4 cells stably expressing human TREM2 together with Dap12, or endogenous TREM2 of primary human myeloid cells; also called huT2 BW; hTREM2 expressing cell line
T1 sequence: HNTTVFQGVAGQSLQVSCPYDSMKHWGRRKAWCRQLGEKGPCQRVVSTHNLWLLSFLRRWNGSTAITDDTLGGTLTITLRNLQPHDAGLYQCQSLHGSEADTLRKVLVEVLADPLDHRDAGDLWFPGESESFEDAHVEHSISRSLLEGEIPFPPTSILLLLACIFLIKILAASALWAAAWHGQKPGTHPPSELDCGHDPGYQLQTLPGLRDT
TEST_DESCRIPTION: FACS, human DCs; also: test concentration or dose not given here
READOUT_TYPE: MFI (MFI)

INSERT INTO results (binder, readout_type, unit_of_measure, result_number) VALUES
  ('AL2p-50 (antibody, V domains shown, Fab and IgG formats under one id) VH: QVQLVQSGAEVKKPGSSVKVSCKASGYAFSSHWMNWVRQAPGQGLEWMGRIYPGEGDTNYAQKFHGRVTITADESTSTAYMELSSLRSEDTAVYYCARLLRNQPGESYAMDYWGQGTLVTVSS VL: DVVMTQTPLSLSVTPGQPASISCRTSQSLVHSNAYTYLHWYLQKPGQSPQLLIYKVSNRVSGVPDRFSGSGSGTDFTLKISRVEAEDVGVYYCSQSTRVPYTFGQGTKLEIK', 'MFI', 'MFI', 235),
  ('AL2p-44 (antibody, IgG1, V domains shown, Fab and IgG formats under one id) VH: QVQLVQSGAEVKKPGSSVKVSCKASGYAFSSHWMNWVRQAPGQGLEWMGRIYPGGGDTNYARKFRGRVTITADESTSTAYMELSSLRSEDTAVYYCARLLRNQPGASYAMDYWGQGTLVTVSS VL: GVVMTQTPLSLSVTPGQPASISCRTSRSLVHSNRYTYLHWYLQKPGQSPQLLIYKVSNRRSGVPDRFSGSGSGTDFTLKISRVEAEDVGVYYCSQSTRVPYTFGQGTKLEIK', 'MFI', 'MFI', 1470),
  ('AL2p-52 (antibody, V domains shown, Fab and IgG formats under one id) VH: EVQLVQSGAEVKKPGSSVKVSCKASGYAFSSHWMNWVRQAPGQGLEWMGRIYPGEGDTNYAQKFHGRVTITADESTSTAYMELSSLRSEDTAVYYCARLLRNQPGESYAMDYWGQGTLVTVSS VL: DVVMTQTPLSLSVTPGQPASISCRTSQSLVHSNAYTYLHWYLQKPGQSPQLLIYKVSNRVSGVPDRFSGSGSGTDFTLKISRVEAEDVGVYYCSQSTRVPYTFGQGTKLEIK', 'MFI', 'MFI', 224);
